Cited source for all entries: ChEMBL document CHEMBL1151043

system: Enterobacter; test: In vitro antibacterial activity against Enterobacter relative to thienamycin; assay type: functional
Measurement name: Relative potency
Answer with a number only.

For the molecule `C[C@@H](O)[C@H]1C(=O)N2C(C(=O)[O-])=C(c3ccc(C[n+]4cc(N)cc5ccccc54)cc3)C[C@H]12` , report Relative potency.
3.7

Using known records, supply Relative potency for `C[C@@H](O)[C@H]1C(=O)N2C(C(=O)[O-])=C(c3ccc(C[N+]4(C)CCCCC4)cc3)C[C@H]12`
8

State its Relative potency: `C[C@@H](O)[C@H]1C(=O)N2C(C(=O)O)=C(c3ccc(CN4CCN(C)CC4)cc3)C[C@H]12`
4.9

Please look at this molecule and report its Relative potency: `C[C@@H](O)[C@H]1C(=O)N2C(C(=O)[O-])=C(c3ccc(C[n+]4ccc(CCS(=O)(=O)[O-])cc4)cc3)C[C@H]12.[K+]`
7

Report Relative potency for `C[C@@H](O)[C@H]1C(=O)N2C(C(=O)[O-])=C(c3ccc(C[n+]4ccc(N5CCOCC5)cc4)cc3)C[C@H]12`
9.8

Supply Relative potency value. Item: `C[C@@H](O)[C@H]1C(=O)N2C(C(=O)O)=C(c3ccc(CN4CCSCC4)cc3)C[C@H]12`
3.2

Tell me its Relative potency given `C[C@@H](O)[C@H]1C(=O)N2C(C(=O)[O-])=C(c3ccc(C[n+]4ccc5ccccc5c4)cc3)C[C@H]12` as the entry.
11.3

====

test system: Escherichia coli; experiment: In vitro antibacterial activity against Escherichia coli relative to thienamycin; assay type: functional
Measurement name: Relative potency
Response field accepts a number only; no unit should be typed.

Supply Relative potency measured with Escherichia coli for `C[C@@H](O)[C@H]1C(=O)N2C(C(=O)[O-])=C(c3ccc(C[n+]4ccc(N5CCOCC5)cc4)cc3)C[C@H]12` .
4

Give reported Relative potency for `C[C@@H](O)[C@H]1C(=O)N2C(C(=O)[O-])=C(c3ccc(C[n+]4cccc(C#N)c4)cc3)C[C@H]12` (Escherichia coli)
4

Check Escherichia coli data and give Relative potency for `C[C@@H](O)[C@H]1C(=O)N2C(C(=O)O)=C(SCCNC=N)C[C@H]12.O` .
1.6

For Escherichia coli, give Relative potency of the listed molecule: `C[C@@H](O)[C@H]1C(=O)N2C(C(=O)[O-])=C(c3ccc(C[N+]4(C)CCOCC4)cc3)C[C@H]12`
2

# return Relative potency of `C[C@@H](O)[C@H]1C(=O)N2C(C(=O)O)=C(c3ccc(CN4CCSCC4)cc3)C[C@H]12` (system: Escherichia coli)
2.3

====

I'd be grateful if you could share measured Relative potency for these entries.
test system: Escherichia coli; experiment: In vitro antibacterial activity against Escherichia coli relative to thienamycin; type: functional
Enter the number alone.

Please report the measured Relative potency for `C[C@@H](O)[C@H]1C(=O)N2C(C(=O)[O-])=C(c3ccc(C[n+]4cccc(N)c4)cc3)C[C@H]12`
7.5

Provide measured Relative potency value, entry: `C[C@@H](O)[C@H]1C(=O)N2C(C(=O)[O-])=C(c3ccc(C[N+]4(C)CCCC4)cc3)C[C@H]12`
3.2

Quickly give me recorded Relative potency for `C[C@@H](O)[C@H]1C(=O)N2C(C(=O)[O-])=C(c3ccc(C[n+]4ccc(CS(=O)(=O)[O-])cc4)cc3)C[C@H]12.[K+]`
6.5

Tell me its Relative potency given `C[C@@H](O)[C@H]1C(=O)N2C(C(=O)[O-])=C(c3ccc(C[n+]4ccc5ccccc5c4N)cc3)C[C@H]12` as the entry.
2.7

Please indicate Relative potency recorded for `C[C@@H](O)[C@H]1C(=O)N2C(C(=O)O)=C(c3ccc(CN4CCCC4)cc3)C[C@H]12`
2.8

Let me know recorded Relative potency for `C[C@@H](O)[C@H]1C(=O)N2C(C(=O)[O-])=C(c3ccc(C[n+]4cccc(C(=O)[O-])c4)cc3)C[C@H]12.[K+]` , thanks.
6.1

Identify the reported Relative potency for the following entry. `C[C@@H](O)[C@H]1C(=O)N2C(C(=O)[O-])=C(c3ccc(C[n+]4ccc(N5CCSCC5)cc4)cc3)C[C@H]12`
5.3

Retrieve Relative potency measured for `C[C@@H](O)[C@H]1C(=O)N2C(C(=O)[O-])=C(c3ccc(C[n+]4ccccc4N)cc3)C[C@H]12` and print it.
2.8

Give the measured Relative potency for `Cc1cc[n+](Cc2ccc(C3=C(C(=O)[O-])N4C(=O)[C@H]([C@@H](C)O)[C@H]4C3)cc2)cc1`
4.6

Give the reported value of Relative potency for this record: `C[C@@H](O)[C@H]1C(=O)N2C(C(=O)[O-])=C(c3ccc(C[n+]4cccc(CSCCC#N)c4)cc3)C[C@H]12`
8

====

target: Dipeptidase 1 (Sus scrofa) (UniProt P22412); experiment: Susceptibility of compound towards porcine Dehydropeptidase-1 relative to imipenem as […] was calculated
Sequence (P22412 whole entry): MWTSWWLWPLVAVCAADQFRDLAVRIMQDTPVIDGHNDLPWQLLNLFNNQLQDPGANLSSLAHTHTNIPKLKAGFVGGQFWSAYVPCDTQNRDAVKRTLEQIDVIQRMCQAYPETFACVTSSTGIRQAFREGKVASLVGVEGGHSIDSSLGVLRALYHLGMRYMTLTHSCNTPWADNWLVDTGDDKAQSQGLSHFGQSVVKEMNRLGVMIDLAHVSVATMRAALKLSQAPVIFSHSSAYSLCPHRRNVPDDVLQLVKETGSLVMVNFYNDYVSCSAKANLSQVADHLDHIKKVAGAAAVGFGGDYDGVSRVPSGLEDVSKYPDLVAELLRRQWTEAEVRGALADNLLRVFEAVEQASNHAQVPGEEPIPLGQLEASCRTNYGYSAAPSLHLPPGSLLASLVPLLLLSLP
Quick rule for you: Susceptibility under 0.04 gets Y, anything else gets N.

Dear reviewer, please state whether `C[C@@H](O)[C@H]1C(=O)N2C(C(=O)O)=C(c3ccc(CN4CCCCC4)cc3)C[C@H]12` has Susceptibility strictly beneath 0.04.
Y

Just wondering, is Susceptibility of `C[C@@H](O)[C@H]1C(=O)N2C(C(=O)[O-])=C(c3ccc(C[N+]4(C)CCOCC4)cc3)C[C@H]12` below 0.04?
Y

I wonder whether `CSCc1ccc[n+](Cc2ccc(C3=C(C(=O)[O-])N4C(=O)[C@H]([C@@H](C)O)[C@H]4C3)cc2)c1` has Susceptibility below 0.04. Can you tell?
N

Threshold test, Susceptibility < 0.04: `C[C@@H](O)[C@H]1C(=O)N2C(C(=O)[O-])=C(c3ccc(C[n+]4ccc(N5CCSCC5)cc4)cc3)C[C@H]12`
N

====

Please provide measured Relative potency for the entries that follow.
system: Enterobacter; assay: In vitro antibacterial activity against Enterobacter relative to thienamycin; assay type: functional
Lab note: write the figure by itself, no unit.

Report measured Relative potency; entry is `CO[C@@]1(NC(=O)Cc2cccs2)C(=O)N2C(C(=O)O)=C(COC(N)=O)CS[C@@H]21`
0.03

Fill in reported Relative potency for this entry: `C[C@@H](O)[C@H]1C(=O)N2C(C(=O)[O-])=C(c3ccc(C[n+]4cccc(C#N)c4)cc3)C[C@H]12`
9.8

Read the entry `C[C@@H](O)[C@H]1C(=O)N2C(C(=O)[O-])=C(c3ccc(C[n+]4cccc(C(F)(F)F)c4)cc3)C[C@H]12` and write its reported Relative potency.
5.7

====

system: Klebsiella; test: In vitro antibacterial activity against Klebsiella relative to thienamycin; assay type: functional
Measurement name: Relative potency
Answer as a number with no unit attached.

Recall the reported Relative potency of `C[C@@H](O)[C@H]1C(=O)N2C(C(=O)O)=C(c3ccc(CN4CCCCC4)cc3)C[C@H]12` on Klebsiella and write it down.
1.4

Report value: Relative potency, system: Klebsiella, compound: `C[C@@H](O)[C@H]1C(=O)N2C(C(=O)[O-])=C(c3ccc(C[n+]4cccc(C(=O)[O-])c4)cc3)C[C@H]12.[K+]`
2

State the measured Relative potency (Klebsiella) of `C[C@@H](O)[C@H]1C(=O)N2C(C(=O)[O-])=C(c3ccc(C[n+]4cc(N)cc5ccccc54)cc3)C[C@H]12`
0.9

Param request: Relative potency | system Klebsiella | item `C[C@@H](O)[C@H]1C(=O)N2C(C(=O)[O-])=C(c3ccc(C[N+]4(C)CCOCC4)cc3)C[C@H]12`
2.3

Under Klebsiella: report Relative potency of `C[C@@H](O)[C@H]1C(=O)N2C(C(=O)O)=C(c3ccc(CN4CCCC4)cc3)C[C@H]12` .
2.1

Please report Relative potency with Klebsiella for item `C[C@@H](O)[C@H]1C(=O)N2C(C(=O)[O-])=C(c3ccc(C[n+]4cccc(C#N)c4)cc3)C[C@H]12` .
2.1

Enter recorded Relative potency with Klebsiella for `C[C@@H](O)[C@H]1C(=O)N2C(C(=O)[O-])=C(c3ccc(C[n+]4ccc(N5CCOCC5)cc4)cc3)C[C@H]12` here.
2.1

Recall the reported Relative potency of `C[C@@H](O)[C@H]1C(=O)N2C(C(=O)[O-])=C(c3ccc(C[n+]4cccc(C(F)(F)F)c4)cc3)C[C@H]12` on Klebsiella and write it down.
2.8

Give reported Relative potency for `Cc1cc[n+](Cc2ccc(C3=C(C(=O)[O-])N4C(=O)[C@H]([C@@H](C)O)[C@H]4C3)cc2)cc1` (Klebsiella)
2.8

State recorded Relative potency with Klebsiella, entry `C[C@@H](O)[C@H]1C(=O)N2C(C(=O)O)=C(c3ccc(CN4CCOCC4)cc3)C[C@H]12` , no comment.
1.4

Report the value of Relative potency obtained on Klebsiella for `C[C@@H](O)[C@H]1C(=O)N2C(C(=O)[O-])=C(c3ccc(C[n+]4ccc(N5CCSCC5)cc4)cc3)C[C@H]12` .
1.1

Send back Klebsiella Relative potency of `C[C@@H](O)[C@H]1C(=O)N2C(C(=O)[O-])=C(c3ccc(C[N+]4(C)CCCC4)cc3)C[C@H]12` only.
2.6

Print Klebsiella Relative potency for `C[C@@H](O)[C@H]1C(=O)N2C(C(=O)[O-])=C(c3ccc(C[n+]4cccc(CSCCC#N)c4)cc3)C[C@H]12` .
4.6

State Relative potency (Klebsiella) of `C[C@@H](O)[C@H]1C(=O)N2C(C(=O)O)=C(c3ccc(CN4CCN(C)CC4)cc3)C[C@H]12` .
1

Please indicate recorded Relative potency of `C[C@@H](O)[C@H]1C(=O)N2C(C(=O)[O-])=C(c3ccc(C[N+]4(C)CCCCC4)cc3)C[C@H]12` measured with Klebsiella.
1.9

Print Klebsiella Relative potency for `C[C@@H](O)[C@H]1C(=O)N2C(C(=O)[O-])=C(c3ccc(C[n+]4ccc(N)cc4)cc3)C[C@H]12` .
2.3

State, for Klebsiella, measured Relative potency of the compound listed here: `C[C@@H](O)[C@H]1C(=O)N2C(C(=O)[O-])=C(c3ccc(C[n+]4ccc5ccccc5c4N)cc3)C[C@H]12`
0.7

Find the measured Relative potency of `C[C@@H](O)[C@H]1C(=O)N2C(C(=O)O)=C(SCCNC=N)C[C@H]12.O` with Klebsiella as test system.
1.5

Tell me its Relative potency on Klebsiella: `C[C@@H](O)[C@H]1C(=O)N2C(C(=O)[O-])=C(c3ccc(C[n+]4ccc(N5CCCCC5)cc4)cc3)C[C@H]12`
0.5

Lab note: record Relative potency of `C[C@@H](O)[C@H]1C(=O)N2C(C(=O)[O-])=C(c3ccc(C[n+]4ccc(CN)cc4)cc3)C[C@H]12` tested on Klebsiella.
0.8

Output reported Relative potency of the compound CC(O)[C@H]1C(=O)N2C(C(=O)O)=C(c3ccc(CN)cc3)C[C@H]12 (stereo partly drawn) on Klebsiella.
3.2

// output Relative potency; input `C[C@@H](O)[C@H]1C(=O)N2C(C(=O)[O-])=C(c3ccc(C[n+]4cccc5ccccc54)cc3)C[C@H]12` ; system Klebsiella
1.2

# lookup: Klebsiella Relative potency, key = `C[C@@H](O)[C@H]1C(=O)N2C(C(=O)[O-])=C(c3ccc(C[n+]4cccc(N)c4)cc3)C[C@H]12`
4.3
